System Name: T1, human 5T4-His protein (human, UniProt Q13641 32-355)
T1 construct: also called recombinant 5T4 protein (human 5T4-his tag); human 5T4 protein; not shown: His tag
T1 sequence (looked up): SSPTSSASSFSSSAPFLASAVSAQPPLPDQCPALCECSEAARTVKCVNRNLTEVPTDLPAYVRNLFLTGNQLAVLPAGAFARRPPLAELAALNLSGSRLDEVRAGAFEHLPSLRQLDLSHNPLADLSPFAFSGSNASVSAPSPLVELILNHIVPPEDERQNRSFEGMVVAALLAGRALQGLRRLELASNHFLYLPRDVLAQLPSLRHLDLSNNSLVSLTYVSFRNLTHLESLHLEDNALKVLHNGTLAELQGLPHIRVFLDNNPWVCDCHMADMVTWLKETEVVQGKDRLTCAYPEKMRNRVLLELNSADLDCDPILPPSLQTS
Assay Procedure: SPR Biacore, Protein A capture

{"Binder": "24F10 chimeric antibody (antibody, V domains shown, chimeric mAb) VH: EVQLVESGGGLVKPGGSLKLSCAASGFTFSDYGMHWVRQAPEKGLEWVAYISSGTSTIYYTDTVKGRFTISRDNAKNTLFLQMTSLRSEDTAMYYCARGGDGYYRSTMDYWGQGISVTVSS VL: DIVLTQSPASLAVSLGQRATISCRASQSVSSSSYSYMHWYQQKPGQPPKLLIKSASNLASGVPARFSGSGSGTDFTLNIHPVEEEDSATYYCQHSWEVPRTFGGGTKLEIK", "koff, s⁻¹": 0.000126}
{"Binder": "286B4 chimeric antibody (antibody, V domains shown, chimeric mAb; also called 284B4-C) VH: DVQLHESGPGLVKPSQSLSLTCSVTGYSITNNYYWNWIRQFPGNNLEWMGYITYDGSNNYNPSLKNRISVTRDTSKNQFFLKLSSVTTEDTATYYCTRGGGQLRFDYWGQGTTLTVSS VL: SIVMTQTPKFLIVSAGDRVTITCKASQSVSNEVTWYQQKPGQSPKMLIYYASNRYTGVPDRFTGSGYGTDFTFTINTVQAEDLAIYFCQQDYSSPWTFGGGTKLEIK", "koff, s⁻¹": "6.99e-05"}
{"Binder": "119G5 chimeric antibody (antibody, V domains shown, chimeric mAb) VH: QVQLQQSGPEVVKPGASVKISCKASGYTFTDYYMNWVKQSRGKSLEWIGDINPNNGGTNYNQKFKGKATLTVDKSSSTAYMELRSLTSEDSAVYYCAKEGPPGAMDYWGQGTSVTVSS VL: NIVMTQTPKFLLVSAGDRVTITCKASQSVSNHVAWYQQKPGQSPKLLIYYVSNRSIGVPDRFTGSGYGTDFTFTISTVQAEDLAVYFCQQVYSSPFTFGGGTRLEMK", "koff, s⁻¹": 0.000159}
